USP7 (Homo sapiens): reported IC50 for various compounds.

Compound	Readout	Test result
OCc1cc2ncnc(-c3cc(Cl)cc4c3O[C@@H](c3onc5c3CNCC5)C4)c2s1	IC50	< 1000 nM
Clc1cc2c(c(-c3ncnc4cc(Cl)ccc34)c1)O[C@@H](c1onc3c1CNCC3)C2	IC50	1000 to 10000 nM
CCC(OC)c1cc2nccc(-c3cc(Cl)cc4c3O[C@@H](c3onc5c3CNCC5)C4)c2s1 (stereo partly drawn)	IC50	< 1000 nM
O=C([C@H]1Cc2cc(Cl)cc(-c3ccnc4ccsc34)c2O1)N1CCNCC1	IC50	< 1000 nM
O=C(C1Cc2cc(Cl)cc(-c3ccnc4[nH]ccc34)c2O1)N1CCC(N2CCOCC2)CC1 (stereo not drawn)	IC50	1000 to 10000 nM
CN1CCc2noc([C@H]3Cc4cc(Cl)cc(-c5ccnc6ccsc56)c4O3)c2C1	IC50	< 1000 nM
FC(F)(F)CN1CCc2noc([C@H]3Cc4cc(Cl)cc(-c5ccnc6ccsc56)c4O3)c2C1	IC50	< 1000 nM
CNC1CCN(C(=O)[C@H]2Cc3cc(Cl)cc(-c4ccnc5ccsc45)c3O2)CC1	IC50	< 1000 nM

Proceeding to the next compound to report its IC50.
Entry CCC(NC(C)=O)c1cc2nccc(-c3cc(Cl)cc4c3O[C@@H](C(=O)N3CCNCC3)C4)c2s1 (stereo partly drawn) : IC50 on USP7 (Homo sapiens) = < 1000 nM

====

USP7 (Homo sapiens, UniProt Q93009): reported IC50 for various compounds.
Sequence (Q93009 whole entry): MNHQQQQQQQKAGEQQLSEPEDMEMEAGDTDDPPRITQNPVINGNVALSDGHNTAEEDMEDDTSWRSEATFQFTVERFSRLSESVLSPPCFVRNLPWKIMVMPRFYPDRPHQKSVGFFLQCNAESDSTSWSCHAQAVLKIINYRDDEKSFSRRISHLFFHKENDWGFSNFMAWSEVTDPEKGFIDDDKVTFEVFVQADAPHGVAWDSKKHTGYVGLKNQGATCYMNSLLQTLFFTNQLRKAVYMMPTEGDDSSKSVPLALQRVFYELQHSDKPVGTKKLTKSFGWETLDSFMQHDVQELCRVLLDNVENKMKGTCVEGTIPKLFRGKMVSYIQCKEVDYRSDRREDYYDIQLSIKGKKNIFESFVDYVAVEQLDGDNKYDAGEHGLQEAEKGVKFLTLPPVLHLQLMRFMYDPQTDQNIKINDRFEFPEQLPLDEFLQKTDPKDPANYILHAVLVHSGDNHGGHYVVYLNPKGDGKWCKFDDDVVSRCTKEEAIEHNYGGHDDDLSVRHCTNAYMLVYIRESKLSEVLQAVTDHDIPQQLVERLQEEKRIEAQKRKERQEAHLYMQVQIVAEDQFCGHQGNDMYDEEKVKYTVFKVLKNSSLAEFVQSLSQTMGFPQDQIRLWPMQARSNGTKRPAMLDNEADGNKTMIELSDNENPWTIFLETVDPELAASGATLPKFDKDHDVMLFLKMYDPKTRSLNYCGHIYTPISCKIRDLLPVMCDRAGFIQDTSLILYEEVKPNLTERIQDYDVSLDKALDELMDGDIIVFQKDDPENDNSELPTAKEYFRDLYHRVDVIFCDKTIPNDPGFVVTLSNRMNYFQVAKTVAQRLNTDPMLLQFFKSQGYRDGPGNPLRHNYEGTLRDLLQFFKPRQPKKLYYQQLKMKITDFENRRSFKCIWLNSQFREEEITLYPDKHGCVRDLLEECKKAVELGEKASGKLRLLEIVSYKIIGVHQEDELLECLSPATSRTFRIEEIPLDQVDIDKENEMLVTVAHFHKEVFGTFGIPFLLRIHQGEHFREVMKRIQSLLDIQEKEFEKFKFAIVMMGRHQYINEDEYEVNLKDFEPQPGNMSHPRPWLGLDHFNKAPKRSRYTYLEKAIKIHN

Compound	System name	IC50
O=C([C@H]1Cc2cc(Cl)cc(-c3ccnc4cc(CN5C(=O)CCC5=O)ccc34)c2O1)N1CCNCC1	USP7 (Homo sapiens, UniProt Q93009)	< 1 µM
CCC(O)c1cc2ncnc(-c3cc(Cl)cc4c3O[C@@H](c3c5c(nn3C)CCNC5)C4)c2s1 (stereo partly drawn)	USP7 (Homo sapiens, UniProt Q93009)	< 1 µM
CN(C)C1CCc2noc([C@H]3Cc4cc(Cl)cc(-c5ccnc6cc(CO)sc56)c4O3)c2C1 (stereo partly drawn)	USP7 (Homo sapiens, UniProt Q93009)	< 1 µM
O=C(C1Cc2cc(Cl)cc(-c3ccnc(Nc4ccccc4)c3)c2O1)N1CCNCC1 (stereo not drawn)	USP7 (Homo sapiens, UniProt Q93009)	10 to 30 µM
COC(=O)c1ccc2c(-c3cc(Cl)cc4c3OC(C(=O)N3CCNCC3)C4)ccnc2c1 (stereo not drawn)	USP7 (Homo sapiens, UniProt Q93009)	10 to 30 µM

Proceeding to the next compound to report its IC50.
Entry O=C([C@H]1Cc2cc(Cl)cc(-c3ncnc4cc(CN5C(=O)CCC5=O)oc34)c2O1)N1CCNCC1 : IC50 on USP7 (Homo sapiens, UniProt Q93009) = < 1 µM

====

USP7 (Homo sapiens): reported IC50 for various molecules.

Molecule	IC50
NCc1cc2nccc(-c3cc(Cl)cc4c3O[C@@H](C(=O)N3CCNCC3)C4)c2s1	< 1 µM

Entry O=C(C1Cc2cc(Cl)cc(-c3ccnc4c3ccn4Cc3ccccc3)c2O1)N1CCNCC1 (centres unmarked) : IC50 on USP7 (Homo sapiens) = 10 to 30 µM

Entry CC(=O)NCC1Cc2nccc(-c3cc(Cl)cc4c3O[C@@H](C(=O)N3CCNCC3)C4)c2C1 (some centres unmarked) : IC50 on USP7 (Homo sapiens) = 1 to 10 µM

Entry NC(=O)C1Cc2nccc(-c3cc(Cl)cc4c3O[C@@H](c3onc5c3CNCC5)C4)c2C1 (some centres unmarked) : IC50 on USP7 (Homo sapiens) = 1 to 10 µM

Entry O=C(NCc1ccccc1)c1cc2c(-c3cc(Cl)cc4c3OC(C(=O)N3CCNCC3)C4)ccnc2[nH]1 (centres unmarked) : IC50 on USP7 (Homo sapiens) = 1 to 10 µM

Reference for the values: patent US20210317134A1
